Taken from ChEMBL document CHEMBL3085726.

Listing: IC50 of selected compounds
Assay: Growth inhibition of Chinese hamster RT16 cells after 96 hrs by CellTiter-blue assay in presence of folic acid
Format: functional, cell-based
Conditions: Cricetulus griseus, RT16, 96 h

{"compound": "Nc1nc2[nH]c(CCCCCCCCC(=O)O)cc2c(=O)[nH]1", "IC50": "> 100 nM"}
{"compound": "Nc1nc2[nH]c(CCCCCC(=O)N[C@@H](CCC(=O)O)C(=O)O)cc2c(=O)[nH]1", "IC50": "> 1000 nM"}
{"compound": "Nc1nc2[nH]c(CCCCCCCC(=O)O)cc2c(=O)[nH]1", "IC50": "> 1000 nM"}
{"compound": "Nc1nc2[nH]c(CCCCCC(=O)O)cc2c(=O)[nH]1", "IC50": "> 1000 nM"}
{"compound": "Nc1nc2[nH]c(CCCCCCCCC(=O)N[C@@H](CCC(=O)O)C(=O)O)cc2c(=O)[nH]1", "IC50": "> 10000 nM"}
{"compound": "Nc1nc2[nH]c(CCCCCCC(=O)O)cc2c(=O)[nH]1", "IC50": "> 1000 nM"}
{"compound": "Nc1nc2[nH]c(CCCCCCC(=O)N[C@@H](CCC(=O)O)C(=O)O)cc2c(=O)[nH]1", "IC50": "> 1000 nM"}
{"compound": "C#CCC(Cc1cnc2nc(N)nc(N)c2n1)c1ccc(C(=O)N[C@@H](CCC(=O)O)C(=O)O)cc1 (mixture of isomers) [PRALATREXATE]", "IC50": "> 1000 nM"}

As a next step, examine the compound that follows.
Exercise: Give its IC50 value. Item: Nc1nc2[nH]c(CCCCCCCC(=O)N[C@@H](CCC(=O)O)C(=O)O)cc2c(=O)[nH]1
Key: > 1000 nM

----------
Assay: Growth inhibition of Chinese hamster RT16 cells after 96 hrs by CellTiter-blue assay
Format: functional, cell-based
Conditions: Cricetulus griseus, RT16, 96 h
Listing: pIC50 of selected compounds
// pIC50 is dimensionless: -log10 of concentration (M)

Some solved cases for reference:
{"compound": "C#CCC(Cc1cnc2nc(N)nc(N)c2n1)c1ccc(C(=O)N[C@@H](CCC(=O)O)C(=O)O)cc1 (mixture of isomers) [PRALATREXATE]", "pIC50": 6.77}
{"compound": "Nc1nc2[nH]c(CCCCCCCCC(=O)N[C@@H](CCC(=O)O)C(=O)O)cc2c(=O)[nH]1", "pIC50": 7.91}
{"compound": "Nc1nc2[nH]c(CCCCCCC(=O)N[C@@H](CCC(=O)O)C(=O)O)cc2c(=O)[nH]1", "pIC50": 7.33}

As a next step, examine the compound that follows.
Exercise: Give its pIC50 value. Item: Nc1nc2[nH]c(CCCCCCCC(=O)N[C@@H](CCC(=O)O)C(=O)O)cc2c(=O)[nH]1
Key: 8.07

----------
Listing: IC50 of selected compounds
Molecular target: Trifunctional purine biosynthetic protein adenosine-3 (Homo sapiens, UniProt P22102)
Sequence (P22102 whole entry): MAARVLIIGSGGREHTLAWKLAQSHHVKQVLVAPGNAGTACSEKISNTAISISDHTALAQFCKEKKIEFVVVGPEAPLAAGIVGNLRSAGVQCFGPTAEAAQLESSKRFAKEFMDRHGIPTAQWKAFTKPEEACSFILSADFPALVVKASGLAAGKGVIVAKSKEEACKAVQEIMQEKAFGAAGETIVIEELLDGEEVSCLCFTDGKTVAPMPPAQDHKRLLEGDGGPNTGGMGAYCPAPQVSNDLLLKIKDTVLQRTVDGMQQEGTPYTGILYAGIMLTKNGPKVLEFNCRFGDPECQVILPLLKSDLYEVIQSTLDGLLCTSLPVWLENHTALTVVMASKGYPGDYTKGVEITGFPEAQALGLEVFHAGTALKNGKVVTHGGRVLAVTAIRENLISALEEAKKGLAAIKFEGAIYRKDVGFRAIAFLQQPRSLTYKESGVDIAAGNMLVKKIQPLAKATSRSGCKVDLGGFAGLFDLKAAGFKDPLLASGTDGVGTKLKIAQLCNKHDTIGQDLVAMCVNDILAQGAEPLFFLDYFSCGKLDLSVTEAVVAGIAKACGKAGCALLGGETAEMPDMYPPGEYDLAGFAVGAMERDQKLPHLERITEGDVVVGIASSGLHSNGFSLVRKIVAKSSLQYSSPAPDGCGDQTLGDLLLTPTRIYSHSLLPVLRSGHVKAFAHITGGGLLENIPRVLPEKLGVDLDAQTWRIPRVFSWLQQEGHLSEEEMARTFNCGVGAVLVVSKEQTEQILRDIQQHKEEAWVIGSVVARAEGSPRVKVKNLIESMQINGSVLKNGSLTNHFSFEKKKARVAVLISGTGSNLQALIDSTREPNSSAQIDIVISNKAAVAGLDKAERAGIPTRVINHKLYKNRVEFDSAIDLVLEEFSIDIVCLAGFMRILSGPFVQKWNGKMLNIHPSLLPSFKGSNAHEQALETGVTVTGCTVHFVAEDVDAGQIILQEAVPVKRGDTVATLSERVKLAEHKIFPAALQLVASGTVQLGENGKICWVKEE
Test: In situ inhibition of GRAFTase in human KB cells assessed as incorporation of [14C]-glycine into [14C]-formyl GAR preincubated for 30 mins followed by [14C]-glycine addition measured after 15 hrs
# number only, unit nM dropped from output

{"given.smiles": "Nc1nc2[nH]c(CCCCCCCCC(=O)N[C@@H](CCC(=O)O)C(=O)O)cc2c(=O)[nH]1", "measured.target": "Trifunctional purine biosynthetic protein adenosine-3 (Homo sapiens, UniProt P22102)", "quantity.kind": "IC50", "recorded.measurement": 9.62}
{"given.smiles": "Nc1nc2[nH]c(CCCCCCCC(=O)N[C@@H](CCC(=O)O)C(=O)O)cc2c(=O)[nH]1", "measured.target": "Trifunctional purine biosynthetic protein adenosine-3 (Homo sapiens, UniProt P22102)", "quantity.kind": "IC50", "recorded.measurement": 5.49}

Exercise: Give its IC50 value. Item: Nc1nc2[nH]c(CCCCCCC(=O)N[C@@H](CCC(=O)O)C(=O)O)cc2c(=O)[nH]1
Key: 2.89

----------
Test: Growth inhibition of Chinese hamster D4 cells after 96 hrs by CellTiter-blue assay
Format: functional, cell-based
Settings: Cricetulus griseus, D4, 96 h
quantity.kind: IC50 (nM)
# number only, unit nM dropped from output

{"given.smiles": "Nc1nc2[nH]c(CCCCCC(=O)N[C@@H](CCC(=O)O)C(=O)O)cc2c(=O)[nH]1", "IC50, nM": 214}
{"given.smiles": "Nc1nc2[nH]c(CCCCCCCCC(=O)N[C@@H](CCC(=O)O)C(=O)O)cc2c(=O)[nH]1", "IC50, nM": 3.99}

Exercise: Give its IC50 value. Item: Nc1nc2[nH]c(CCCCCCCC(=O)N[C@@H](CCC(=O)O)C(=O)O)cc2c(=O)[nH]1
Key: 0.87

Exercise: What do you have for Nc1nc2[nH]c(CCCCCCC(=O)N[C@@H](CCC(=O)O)C(=O)O)cc2c(=O)[nH]1 ?
Key: 10.6

----------
Molecular target: UniProt P14207
Sequence (P14207 17-230 limits assumed): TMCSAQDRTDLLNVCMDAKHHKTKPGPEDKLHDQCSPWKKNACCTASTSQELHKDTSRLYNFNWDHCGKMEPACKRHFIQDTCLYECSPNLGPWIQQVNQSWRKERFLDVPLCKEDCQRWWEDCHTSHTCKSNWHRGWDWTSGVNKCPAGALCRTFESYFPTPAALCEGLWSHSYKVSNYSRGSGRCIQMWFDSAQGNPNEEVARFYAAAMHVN
Assay: Displacement of [3H]-folic acid from human folate receptor-beta expressed in Chinese hamster D4 cells after 15 mins
Type: cell-based
The source made the active and inactive calls. The calls are words filed in the database; no cut-off is given here.
Use one of these outcomes when replying: active, inactive

{"given.smiles": "Nc1nc2[nH]c(CCCCCCCCC(=O)N[C@@H](CCC(=O)O)C(=O)O)cc2c(=O)[nH]1", "classification": "active"}
{"given.smiles": "Nc1nc2[nH]c(CCCCCCCCC(=O)O)cc2c(=O)[nH]1", "classification": "inactive"}
{"given.smiles": "Nc1nc(=O)c2nc(CNc3ccc(C(=O)N[C@@H](CCC(=O)O)C(=O)O)cc3)cnc2[nH]1", "classification": "active"}
{"given.smiles": "Nc1nc2[nH]c(CCCCCC(=O)N[C@@H](CCC(=O)O)C(=O)O)cc2c(=O)[nH]1", "classification": "active"}
{"given.smiles": "Nc1nc2[nH]c(CCCCCCC(=O)N[C@@H](CCC(=O)O)C(=O)O)cc2c(=O)[nH]1", "classification": "active"}

As a next step, examine the molecule that follows.
Exercise: Please state the recorded outcome for this molecule: Nc1nc2[nH]c(CCCCCCCC(=O)N[C@@H](CCC(=O)O)C(=O)O)cc2c(=O)[nH]1
Key: active

----------
Listing: pIC50 of selected molecules
Assay: Growth inhibition of Chinese hamster RT16 cells after 96 hrs by CellTiter-blue assay
Assay type: functional, cell-based
Conditions: Cricetulus griseus, RT16, 96 h
pIC50: −log10 of the molar value.

Some solved cases for reference:
{"given.smiles": "Nc1nc2[nH]c(CCCCCCC(=O)O)cc2c(=O)[nH]1", "pIC50": "< 6.00"}
{"given.smiles": "Nc1nc2[nH]c(CCCCCC(=O)N[C@@H](CCC(=O)O)C(=O)O)cc2c(=O)[nH]1", "pIC50": "< 6.00"}
{"given.smiles": "Nc1nc2[nH]c(CCCCCCCC(=O)O)cc2c(=O)[nH]1", "pIC50": "< 6.00"}

Exercise: Give its pIC50 value. Item: Nc1nc2[nH]c(CCCCCC(=O)O)cc2c(=O)[nH]1
Key: < 6.00

Exercise: What do you have for Nc1nc2[nH]c(CCCCCCCCC(=O)O)cc2c(=O)[nH]1 ?
Key: < 5.00
